pKi: −log10 of the molar value.
Literature-derived pKi for Coagulation factor X (Homo sapiens, UniProt P00742) follows.

For orientation, consider the following solved cases.
{"compound": "CN(C)C1CCc2cc(N3CCC(NS(=O)(=O)c4cc5ccc(Cl)cc5s4)C3=O)ccc21 (stereo not drawn)", "pKi": "> 7.30"}
{"compound": "NC(=O)c1cc(-n2nc(C(F)(F)F)c3c2C(=O)N(C2CCN(N4CCOCC4=O)CC2)CC3)ccc1OC(F)F", "pKi": "6.00 to 7.30"}
{"compound": "C/C(=C\\S(=O)(=O)N(C(C)C)[C@H]1CCN(c2ccc(C(=O)N(C)C)cc2F)C1=O)c1ccc(Cl)s1", "pKi": "> 8.00"}
{"compound": "CC1(C)C2CC3OB([C@H](CCCNC(=N)N)NC(=O)Cn4nc(Cc5ccccc5)nc4-c4ccccc4)OC3(C)C1C2 (single isomer, unassigned)", "pKi": "4.30 to 6.30"}
{"compound": "NC(=O)c1nn(-c2ccc(OC(F)(F)F)cc2)c2c1CCN(C1CCN(N3CCOCC3=O)CC1)C2=O", "pKi": "≥ 8.00"}

From here, focus on the item given below.
Lookup: pKi / Coagulation factor X (Homo sapiens, UniProt P00742) / CC1(C)[C@@H]2C[C@H]3OB([C@H](CCCNC(=N)N)NC(=O)c4ccc(-c5ccccc5)c([N+](=O)[O-])c4)O[C@@]3(C)[C@H]1C2
> 6.30
